Target: human mAChR M4 (Homo sapiens)
Construct: expressed in transfected cells; host or cells: CHO-K1 (ATCC), stably co-expressing chimeric G protein Gqi5
Test: mAChR M4 cell-based functional assay (calcium mobilization, EC80 acetylcholine), human M4
Conditions: Table 9; M4/Gqi5/CHO-K1 cells, decrease of EC80 acetylcholine response
Response field label takes true (1) when IC50 is strictly below 600 nM and false (0) in all other cases.

1) Cc1nn(C)cc1-c1ccc(NCC2C[C@@H]3CN(CC4CC5C=CC4C5)C[C@@H]3C2)nn1 (some centres unmarked) = true (1)
2) Fc1ccc(Cl)c(-c2ccc(N[C@H]3C[C@@H]4CN(CC5CCOCC5)C[C@@H]4C3)nn2)c1 = true (1)
3) CCC(C)CN1C[C@H]2CC(COc3ccc(-c4c(C)cnn4C)nn3)C[C@H]2C1 (some centres unmarked) = false (0)
4) CCCC(C)CN1C[C@H]2CC(COc3ccc(-c4cc(F)ccc4Cl)nn3)C[C@H]2C1 (some centres unmarked) = false (0)
5) CCC(C)CN1C[C@H]2C[C@H](Nc3ccc(-c4cc(F)ccc4Cl)nn3)C[C@H]2C1 (some centres unmarked) = true (1)
6) Cc1cccnc1CN1C[C@H]2C[C@H](Nc3ccc(-c4cc(F)ccc4Cl)nn3)C[C@H]2C1 = true (1)
7) Cc1cnn(C)c1-c1ccc(OCC2C[C@@H]3CN(CC45CC6CC(CC(C6)C4)C5)C[C@@H]3C2)nn1 (some centres unmarked) = true (1)
8) Fc1ccc(Cl)c(-c2ccc(OCC3C[C@@H]4CN(CC56CC7CC(CC(C7)C5)C6)C[C@@H]4C3)nn2)c1 (some centres unmarked) = false (0)
9) Cc1cnn(C)c1-c1ccc(OCC2C[C@@H]3CN(Cc4ccccc4F)C[C@@H]3C2)nn1 (some centres unmarked) = false (0)
10) Cc1cnn(C)c1-c1ccc(OCC2C[C@@H]3CN(CC4CC5C=CC4C5)C[C@@H]3C2)nn1 (some centres unmarked) = true (1)
11) Cc1nn(C)cc1-c1ccc(OCC2C[C@@H]3CN(CCC(C)(C)C)C[C@@H]3C2)nn1 (some centres unmarked) = true (1)
12) Cc1cnn(C)c1-c1ccc(OCC2C[C@@H]3CN(CC4CCOCC4)C[C@@H]3C2)nn1 (some centres unmarked) = false (0)
13) Fc1ccc(Cl)c(-c2ccc(O[C@@H]3C[C@@H]4CN(CC5CCCOC5)C[C@@H]4C3)nn2)c1 (some centres unmarked) = false (0)

----------
Target: human mAChR M4 (Homo sapiens, UniProt P08173)
Construct: expressed in transfected cells; host or cells: CHO-K1 (ATCC), stably co-expressing chimeric G protein Gqi5
Assay: mAChR M4 cell-based functional assay (calcium mobilization, EC80 acetylcholine), human M4
Settings: Table 10
measure: Human M4 Emin (%)

1. COc1ccc(-c2ccc(N[C@H]3C[C@@H]4CN(CC5CCOCC5)C[C@@H]4C3)nn2)cn1 [Compound 224] = 4
2. Fc1ccc(Cl)c(-c2ccc(N[C@@H]3C[C@@H]4CN(CC5CCOCC5)C[C@@H]4C3)nn2)c1 [Compound 159] = 4
3. c1cc(N2CCCCC2)nnc1N[C@H]1C[C@@H]2CN(CC3CCOCC3)C[C@@H]2C1 [Compound 193] = 3
4. CC(C)(C)CCN1C[C@H]2C[C@H](Oc3ccc(-c4cc(F)ccc4Cl)nn3)C[C@H]2C1 [Compound 137] = 3

----------
Molecular target: human mAChR M4 (Homo sapiens, UniProt P08173)
Construct: expressed in transfected cells; host or cells: CHO-K1 (ATCC), stably co-expressing chimeric G protein Gqi5
Sequence (P08173 1-479): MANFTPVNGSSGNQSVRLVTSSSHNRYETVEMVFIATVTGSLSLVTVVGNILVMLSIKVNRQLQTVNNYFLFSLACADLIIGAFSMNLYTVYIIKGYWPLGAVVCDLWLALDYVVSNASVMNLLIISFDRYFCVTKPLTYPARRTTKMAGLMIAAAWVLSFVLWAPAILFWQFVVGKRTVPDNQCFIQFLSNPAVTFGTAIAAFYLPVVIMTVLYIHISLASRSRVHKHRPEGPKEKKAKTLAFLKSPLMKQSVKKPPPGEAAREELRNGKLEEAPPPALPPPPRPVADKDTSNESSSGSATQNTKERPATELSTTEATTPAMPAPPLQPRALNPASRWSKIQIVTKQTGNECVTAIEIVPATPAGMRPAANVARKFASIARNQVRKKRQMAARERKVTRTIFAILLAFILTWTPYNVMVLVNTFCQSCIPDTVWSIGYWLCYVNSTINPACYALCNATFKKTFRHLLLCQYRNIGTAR
Test: mAChR M4 cell-based functional assay (calcium mobilization, EC80 acetylcholine), human M4
Details: Table 9; human M4; % ACh maximum at 30 μM
Protocol: Human or rat M4 cDNA, along with the chimeric G protein Gqi5, were transfected into Chinese hamster ovary (CHO-K1) cells purchased from the American Type Culture Collection using Lipofectamine2000. […] Calcium flux was measured using the Functional Drug Screening System (FDSS) 6000 or 7000 (Hamamatsu Corporation, Tokyo, Japan) as an increase in the fluorescent static ratio. […] Agonist activity was analyzed as a concentration-dependent increase in calcium mobilization upon compound addition. […]
In this section, each of the molecules is paired with its reported Emin.
measure: Emin (%)

1. Fc1ccc(Cl)c(-c2ccc(OCC3C[C@@H]4CN(Cc5ccccc5)C[C@@H]4C3)nn2)c1 (stereo partly shown) [Compound 114] = 6.02
2. Cc1nn(C)cc1-c1ccc(NCC2C[C@@H]3CN(CC4CC5C=CC4C5)C[C@@H]3C2)nn1 (stereo partly shown) [Compound 62] = 3.32
3. CCC(C)CN1C[C@H]2C[C@H](Nc3ccc(-c4c(C)cnn4C)nn3)C[C@H]2C1 (stereo partly shown) [Compound 18] = 2.90
4. Cc1cnn(C)c1-c1ccc(OCC2C[C@@H]3CN(Cc4ccccn4)C[C@@H]3C2)nn1 (stereo partly shown) [Compound 89] = 18.1
5. Fc1ccc(Cl)c(-c2ccc(OCC3C[C@@H]4CN(CC5CC6C=CC5C6)C[C@@H]4C3)nn2)c1 (stereo partly shown) [Compound 108] = 3.90
6. Fc1ccc(Cl)c(-c2ccc(NC[C@H]3C[C@@H]4CN(CC5CC6C=CC5C6)C[C@@H]4C3)nn2)c1 (stereo partly shown) [Compound 69] = 2.74
7. Cc1cnn(C)c1-c1ccc(NCCC2C[C@@H]3CN(Cc4ccccc4)C[C@@H]3C2)nn1 (stereo partly shown) [Compound 126] = 3.89

----------
Biological target: human mAChR M4 (Homo sapiens, UniProt P08173)
Construct: expressed in transfected cells; host or cells: CHO-K1 (ATCC), stably co-expressing chimeric G protein Gqi5
Test: mAChR M4 cell-based functional assay (calcium mobilization, EC80 acetylcholine), human M4
Settings: Table 9; M4/Gqi5/CHO-K1 cells, decrease of EC80 acetylcholine response
pIC50: −log10 of the molar value.
In this section, each of the compounds is paired with its reported pIC50.
measure: pIC50

1. CCC(C)CN1C[C@H]2C[C@H](Nc3ccc(-c4cn(C)nc4C)nn3)C[C@H]2C1 (some centres unmarked) = 9.15
2. Cc1cnn(C)c1-c1ccc(N[C@H]2C[C@@H]3CN(CCC(C)(C)C)C[C@@H]3C2)nn1 = 8.10
3. Fc1ccc(Cl)c(-c2ccc(O[C@@H]3C[C@@H]4CN(CC5CCCCC5)C[C@@H]4C3)nn2)c1 = 6.81
4. Cc1nn(C)cc1-c1ccc(N[C@@H]2C[C@@H]3CN(CCC(C)(C)C)C[C@@H]3C2)c(F)c1F = 6.36
5. Cc1cnn(C)c1-c1ccc(N[C@H]2C[C@@H]3CN(CC4CCCCO4)C[C@@H]3C2)nn1 (some centres unmarked) = 7.50
6. Fc1ccc(Cl)c(-c2ccc(N[C@H]3C[C@@H]4CN(Cc5ccccc5)C[C@@H]4C3)nn2)c1 = 7.77
7. Fc1ccc(Cl)c(-c2ccc(NC[C@H]3C[C@@H]4CN(CC5CCOCC5)C[C@@H]4C3)nn2)c1 = 6.44
8. Fc1ccc(Cl)c(-c2ccc(OCC3C[C@@H]4CN(Cc5ccc6c(c5)OCO6)C[C@@H]4C3)nn2)c1 (some centres unmarked) = 6.18
9. Cc1nn(C)cc1-c1ccc(N[C@H]2C[C@@H]3CN(CC4CCCOC4)C[C@@H]3C2)nn1 (some centres unmarked) = 7.94
10. Cc1cnn(C)c1-c1ccc(NCCC2C[C@@H]3CN(CC45CC6CC(CC(C6)C4)C5)C[C@@H]3C2)nn1 (some centres unmarked) = 7.33
11. Cc1cnn(C)c1-c1ccc(NC[C@H]2C[C@@H]3CN(CCC(C)(C)C)C[C@@H]3C2)nn1 = 7.45
12. Fc1ccc(Cl)c(-c2ccc(OCC3C[C@@H]4CN(CC5CCOCC5)C[C@@H]4C3)nn2)c1 (some centres unmarked) = 6.22
13. Cc1nn(C)cc1-c1ccc(O[C@@H]2C[C@@H]3CN(CC(C)C(C)(C)C)C[C@@H]3C2)nn1 (some centres unmarked) = 5.95
14. Cc1nn(C)cc1-c1ccc(N[C@H]2C[C@@H]3CN(CC4CCOCC4)C[C@@H]3C2)nn1 = 8.00
15. Cc1cnn(C)c1-c1ccc(NC(=O)C2CC3CN(CC4CC5C=CC4C5)CC3C2)nn1 (centres unmarked) = 6.39
16. Fc1ccc(Cl)c(-c2ccc(N[C@H]3C[C@@H]4CN(CC5CC6C=CC5C6)C[C@@H]4C3)nn2)c1 (some centres unmarked) = 8.03
17. Cc1nn(C)cc1-c1ccc(N[C@H]2C[C@@H]3CN(Cc4ccc5c(c4)OCO5)C[C@@H]3C2)nn1 = 9.22
18. Cc1cccnc1CN1C[C@H]2C[C@H](CNc3ccc(-c4cn(C)nc4C)nn3)C[C@H]2C1 = 5.70
19. Cc1nn(C)cc1-c1ccc(OCC2C[C@@H]3CN(Cc4ccc(F)cc4)C[C@@H]3C2)nn1 (some centres unmarked) = 5.59
20. Cc1nn(C)cc1-c1ccc(N[C@@H]2C[C@@H]3CN(CC4CCCCCC4)C[C@@H]3C2)c(F)c1F = 5.67
21. Cc1nn(C)cc1-c1ccc(OCC2C[C@@H]3CN(Cc4ccccc4F)C[C@@H]3C2)nn1 (some centres unmarked) = 5.60
22. Cc1cnn(C)c1-c1ccc(OCC2C[C@@H]3CN(Cc4ccc(F)cc4)C[C@@H]3C2)nn1 (some centres unmarked) = 5.38
23. CCCC(C)CN1C[C@H]2CC(COc3ccc(-c4c(C)cnn4C)nn3)C[C@H]2C1 (some centres unmarked) = 6.27
24. Cc1cnn(C)c1-c1ccc(OCC2C[C@@H]3CN(Cc4ccccn4)C[C@@H]3C2)nn1 (some centres unmarked) = 5.09
25. Cc1nn(C)cc1-c1ccc(N[C@H]2C[C@@H]3CN(CCC(C)(C)C)C[C@@H]3C2)nn1 = 9.22
26. Cc1cnn(C)c1-c1ccc(NC(=O)C2CC3CN(CC(C)C(C)(C)C)CC3C2)nn1 (centres unmarked) = 5.98
27. Cc1nn(C)cc1-c1ccc(OCC2C[C@@H]3CN(Cc4ccccc4)C[C@@H]3C2)nn1 (some centres unmarked) = 5.62
28. CC(C)(C)CCN1C[C@H]2C[C@H](Nc3ccc(-c4cc(F)ccc4Cl)nn3)C[C@H]2C1 = 8.00
29. Cc1cnn(C)c1-c1ccc(NC[C@H]2C[C@@H]3CN(CC4CC5C=CC4C5)C[C@@H]3C2)nn1 (some centres unmarked) = 8.10
